Test system: RAW-Dual (murine macrophage reporter line)
Experiment: viability score (confluency relative to resting cells, overnight) (fraction); higher = more viable, active = viable (0.7 or more)
Settings: modulator concentration 10 µM
Select the matching outcome among active, inactive

In [3]: df
Out[3]:
                                   compound                             system_tested  class_assignment
0  COc1c(C)c2c(c(O)c1C/C=C(\C)CCC(=O)O)C(=O)OC2  RAW-Dual (murine macrophage reporter line)          inactive

What did the test return for `Cc1ccc(S(=O)(=O)N=C(Nc2ccc([N+](=O)[O-])cc2)c2ccccc2)cc1` ? active

What did the test return for `Cc1c(-c2ccccc2)nc2ccccc2c1C(=O)N1CCCC1` ? active

What did the test return for O=C(Nc1ccccn1)c1ccc(OCC2CCCO2)nc1 (stereo not given) ? active

What did the test return for CSc1ccccc1NC(=O)C1CCCN(c2ccc(-n3cncn3)nn2)C1 (stereo not given) ? active

What did the test return for CCOC(=O)c1c(N2C(=O)C3C4C=CC(O4)C3C2=O)sc2c1CCCC2 (stereo not given) ? active

What did the test return for `Nc1nc(Cl)nc2c1ncn2[C@H]1C[C@H](O)[C@@H](CO)O1` ? inactive

What did the test return for Cc1ccccc1C(=O)Nc1ccc(C(=O)N2CCCC(O)c3cc(Cl)ccc32)c(C)c1 (stereo not given) ? active

What did the test return for COc1cc2c(cc1OC)C1C(=O)c3ccc4c(c3OC1CO2)CCC(C)(C)O4 (stereo not given) ? active

What did the test return for COC(=O)C1C(c2ccccc2)C(C(=O)Oc2ccc(C(C)=O)cc2)C1c1ccccc1 (stereo not given) ? active

Values from the supplement of paper PMC10646978
